Where do these numbers come from? They come from patent US8546579B2.

Reported inhibition values are given for each entry in this list.
# TARGET OR SYSTEM: P2X7 receptor (Homo sapiens)
# Construct: host or cells: THP-1 cells differentiated with LPS and IFN-γ
# EXPERIMENT DESCRIPTION: IL-1β release assay in differentiated THP-1 cells stimulated with BzATP (Example 9)
# Assay type: cell-based
# Parameters: dose or concentration left out as unconfirmed
# CONDITION SUMMARY: THP-1; read-out: IL-1β % Inhib.

Examples with answers:
Problem: So what's the measured inhibition for this one? Cc1ccccc1C(=O)Nc1cccc2c(=O)n(Cc3ccc(OC(F)(F)F)cc3)ccc12
Solution: 0 to 25%

Problem: So what's the measured inhibition for this one? O=C(Nc1cccc2c(=O)n(CCCN3CCCC3=O)ccc12)c1ccccc1Cl
Solution: 51 to 75%

Problem: So what's the measured inhibition for this one? CC(C)(C)c1ccc(C(=O)Nc2cccc3c(=O)n(Cc4cccnc4)ccc23)cc1
Solution: 0 to 25%

Switching to the query record.
Problem: So what's the measured inhibition for this one? O=C(Nc1cccc2c(=O)n(CCCN3CCCC3=O)ccc12)C(O)c1ccccc1Cl (centres unmarked)
Solution: 26 to 50%

---

# TARGET OR SYSTEM: P2X7 receptor (Homo sapiens)
# Construct: host or cells: THP-1 cells differentiated with LPS and IFN-γ
# EXPERIMENT DESCRIPTION: IL-1β release assay in differentiated THP-1 cells stimulated with BzATP (Example 9)
# Assay type: cell-based
# CONDITION SUMMARY: 0.3 μM compound; differentiated THP-1 cells, BzATP 250 uM; symbols + to ++++; read-out: IL-1β % Inhib. @ 0.3 μM
Reported inhibition at 0.3 µM values are given for each entry in this list.

Examples with answers:
Problem: So what's the measured inhibition at 0.3 µM for this one? O=C(Nc1cccc2c(=O)n(CCN3CCOCC3)ccc12)c1cccc2c1OCCO2
Solution: 0 to 25%

Problem: So what's the measured inhibition at 0.3 µM for this one? CCOc1ccc(CC(=O)Nc2cccc3c(=O)n(CCOC)ccc23)cc1
Solution: 0 to 25%

Problem: So what's the measured inhibition at 0.3 µM for this one? O=C(Nc1cccc2c(=O)n(CCN3CCOCC3)ccc12)c1cc2ccccc2o1
Solution: 0 to 25%

Problem: So what's the measured inhibition at 0.3 µM for this one? COCCn1ccc2c(NC(=O)Cc3ccc(Cl)c(Cl)c3)cccc2c1=O
Solution: 51 to 75%

Problem: So what's the measured inhibition at 0.3 µM for this one? CC(C)(C)Cn1ccc2c(NC(=O)c3cccc4ccccc34)cccc2c1=O
Solution: 0 to 25%

Problem: So what's the measured inhibition at 0.3 µM for this one? Cc1ccc(Cl)cc1C(=O)Nc1cccc2c(=O)n(Cc3cccnc3)ccc12
Solution: 0 to 25%

Problem: So what's the measured inhibition at 0.3 µM for this one? Cc1cccc(C(=O)Nc2cccc3c(=O)n(CCN4CCOCC4)ccc23)c1Cl
Solution: 0 to 25%

Switching to the query record.
Problem: So what's the measured inhibition at 0.3 µM for this one? COc1cccc(CC(=O)Nc2cccc3c(=O)n(CC(C)(C)C)ccc23)c1
Solution: 0 to 25%

---

# TARGET OR SYSTEM: P2X7 receptor (Homo sapiens, UniProt Q99572)
# Construct: host or cells: THP-1 cells differentiated with LPS and IFN-γ
# Sequence (Q99572 whole entry): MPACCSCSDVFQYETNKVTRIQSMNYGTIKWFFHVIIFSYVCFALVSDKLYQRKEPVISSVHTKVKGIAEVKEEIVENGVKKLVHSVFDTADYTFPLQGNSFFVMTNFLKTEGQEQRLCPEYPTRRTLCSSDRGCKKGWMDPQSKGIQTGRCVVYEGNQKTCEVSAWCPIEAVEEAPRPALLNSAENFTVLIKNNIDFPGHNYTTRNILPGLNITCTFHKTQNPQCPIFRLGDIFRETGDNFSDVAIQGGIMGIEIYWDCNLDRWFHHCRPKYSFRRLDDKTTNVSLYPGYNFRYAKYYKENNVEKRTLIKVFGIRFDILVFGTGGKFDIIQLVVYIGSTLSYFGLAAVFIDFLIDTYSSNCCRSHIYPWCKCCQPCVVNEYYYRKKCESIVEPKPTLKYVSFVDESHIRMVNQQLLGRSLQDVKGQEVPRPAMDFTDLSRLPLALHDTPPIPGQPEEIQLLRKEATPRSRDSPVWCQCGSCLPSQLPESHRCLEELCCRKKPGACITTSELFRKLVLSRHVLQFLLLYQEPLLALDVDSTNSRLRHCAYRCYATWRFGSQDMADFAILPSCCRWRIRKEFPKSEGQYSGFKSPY
# EXPERIMENT DESCRIPTION: IL-1β release assay in differentiated THP-1 cells stimulated with BzATP (Example 9)
# Format: cell-based
# CONDITION SUMMARY: 0.1 μM compound; differentiated THP-1 cells, BzATP 250 uM; '*' class symbols; read-out: IL-1β % Inhib. (asterisk classes, 0.1 μM)
# Method: THP-1 cells (ATCC Cat # 285-IF-100) are plated in 96 well plates at a concentration of 200,000 cells per well and allowed to differentiate in RPMI-1640 media (ATCC Cat # 30-2001) containing 10% FBS, 100 IU/mL penicillin, 100 ug/mL streptomycin, 100 ng/mL LPS and 100 ng/mL IFN-γ for 16 hours. […] 30 uL of cell supernatant is then collected and IL-1β levels determined via ELISA (R&D systems Cat. # HSLB50) according to manufacturer's recommendations using the Tecan Safire plate reader. […]
VALUE TYPE: inhibition at 0.1 µM

Examples with answers:
Problem: So what's the measured inhibition at 0.1 µM for this one? O=C(Nc1cccc2c(=O)n(CCN3CCOCC3)ccc12)c1cc(Cl)cc(Cl)c1
Solution: 0 to 25%

Problem: So what's the measured inhibition at 0.1 µM for this one? Cc1cccc(C(=O)Nc2cccc3c(=O)n(CCN4CCOCC4)ccc23)c1
Solution: 0 to 25%

Problem: So what's the measured inhibition at 0.1 µM for this one? CCOc1ccc(C(=O)Nc2cccc3c(=O)n(CCOC)ccc23)c(O)c1
Solution: 0 to 25%

Problem: So what's the measured inhibition at 0.1 µM for this one? CC1CCC(C(=O)Nc2cccc3c(=O)n(CC(C)(C)C)ccc23)CC1 (centres unmarked)
Solution: 0 to 25%

Problem: So what's the measured inhibition at 0.1 µM for this one? Cc1ccccc1CCC(=O)Nc1cccc2c(=O)n(C)ccc12
Solution: 0 to 25%

New cases:
Problem: So what's the measured inhibition at 0.1 µM for this one? CC1CCC(C(=O)Nc2cccc3c(=O)n(CCN(C)C)ccc23)CC1 (centres unmarked)
Solution: 26 to 50%

Problem: So what's the measured inhibition at 0.1 µM for this one? Cc1ccccc1CCC(=O)Nc1cccc2c(=O)n(CC(C)(C)C)ccc12
Solution: 0 to 25%

Problem: So what's the measured inhibition at 0.1 µM for this one? COc1cccc(CCC(=O)Nc2cccc3c(=O)n(CCN4CCOCC4)ccc23)c1
Solution: 0 to 25%

Problem: So what's the measured inhibition at 0.1 µM for this one? CN(C)CCn1ccc2c(NC(=O)c3ccc(-c4ccccc4)o3)cccc2c1=O
Solution: 0 to 25%

Problem: So what's the measured inhibition at 0.1 µM for this one? CCOc1ccc(C(=O)Nc2cccc3c(=O)n(CCN(C)C)ccc23)cc1
Solution: 0 to 25%
